Just for reference, patent US10844023B2 is where these values come from.

System: Mfn2 null MEFs
assay_explanation: Mitochondrial elongation (aspect ratio) fusogenicity assay
Format: cell-based, mouse
Design: dose or concentration left out as unconfirmed
test_context: mitochondrial elongation relative to Cpd B (B01 = 100); Mfn2 null MEFs, compound overnight as printed (FIG. 48)
Note to self: values exactly at 10% are met. So % long compare to B at or above 10% is met, below is not met.

Observe how each entry below is paired with its result.
- molecule: "NC(=O)c1c(NC(=O)CSc2nnc(-c3ccncc3)n2-c2ccc(F)cc2)sc2c1CCC2 [1-H5]"
  group_label: "met"
- molecule: "O=C(NCCSCc1ccc(Br)s1)C1CCCN(C(=O)c2cccs2)C1 (centres unmarked) [B09]"
  group_label: "met"
- molecule: "CC(Sc1nc(CN2CCOCC2)nc2ccccc12)C(=O)Nc1cccc(C(F)(F)F)c1 (centres unmarked) [A08]"
  group_label: "met"

From here, focus on the item given below.
### Prompt For this molecule, is measured % long compare to B 10% or higher? Cc1nc[nH]c1CSCCNC(=O)C1CCN(C(=O)C2CCC2)CC1 [D11]
### Response not met
